# assay-name: qHTS of pediatric cancer cell lines to identify multiple opportunities for drug repurposing: Confirmatory screen for BT-12 cells (AID 1347112);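 also: viability read after 48 h of compound exposure; nearly all actives have a fitted effect of over 55% in size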
# condition-parameters: BT-12 rhabdoid tumor cells, viability; series mostly up to 45.9 µM
Records with an inconclusive call do not appear. Activity calls are given as the source filed them. Calls follow the shape of the dose curve; as a rule, active = well fitted cell-killing curve with a large enough effect; inconclusive = small, poorly fitted or top-dose-only effect; inactive = flat fitted curve, though single readings scatter.
Possible outcomes: active, inactive

>  <compound>
CC(C)(C(=O)c1cccnc1)c1cccnc1

>  <answer-label>
inactive

$$$$
>  <compound>
CCCCCCC[N+](CC)(CC)CCCCc1ccc(Cl)cc1

>  <answer-label>
active

$$$$
>  <compound>
CC(=O)Oc1ccc2c(c1)CC[C@@H]1[C@@H]2CC[C@]2(C)[C@@H](O)CC[C@@H]12

>  <answer-label>
inactive

$$$$
>  <compound>
CCC(C(=O)OCCN(CC)CC)c1ccccc1 (configuration not stated)

>  <answer-label>
inactive

$$$$
>  <compound>
CCCC(=O)O[C@]1(C(=O)CO)CC[C@H]2[C@@H]3CCC4=CC(=O)CC[C@]4(C)[C@H]3[C@@H](O)C[C@@]21C

>  <answer-label>
inactive

$$$$
>  <compound>
CC(=O)Oc1ccc(C(c2ccc(OC(C)=O)cc2)c2ccccn2)cc1

>  <answer-label>
inactive

$$$$
>  <compound>
CC(=O)[C@H]1CC[C@H]2[C@@H]3C[C@H](C)C4=CC(=O)CC[C@]4(C)[C@H]3[C@@H](O)C[C@]12C

>  <answer-label>
inactive

$$$$
>  <compound>
CC(=O)OCC(=O)[C@@]1(O)CC[C@H]2[C@@H]3CCC4=CC(=O)C=C[C@]4(C)[C@H]3[C@@H](O)C[C@@]21C

>  <answer-label>
inactive

$$$$
>  <compound>
CC1(C)O[C@@H]2C[C@H]3[C@@H]4CCC5=CC(=O)CC[C@]5(C)[C@@]4(F)[C@@H](O)C[C@]3(C)[C@]2(C(=O)CCl)O1

>  <answer-label>
inactive

$$$$
>  <compound>
CCCCC(CC)CN=C(N)NC(N)=NCCCCCCN=C(N)NC(N)=NCC(CC)CCCC (configuration not stated)

>  <answer-label>
active

$$$$
>  <compound>
NC(CO)(CO)CO

>  <answer-label>
inactive

$$$$
>  <compound>
C[C@H]1C[C@H]2[C@@H]3CCC4=CC(=O)C=C[C@]4(C)[C@@]3(Cl)[C@@H](O)C[C@]2(C)[C@@]1(O)C(=O)CO

>  <answer-label>
inactive

$$$$

Reference source: PubChem BioAssay (NCATS)
